Where these numbers come from: patent US11872270B2

- Study Target: HLA-A*03:01 (Homo sapiens)
- Procedure Details: MHC binding assay (UV-ligand exchange, β2m ELISA)
- Measurement Parameters: binding to HLA-A*03:01, UV-ligand exchange, β2m ELISA
Readout Label: Peptide exchange (MHC class I binding score, peptide exchange yield)

INSERT INTO results (substance, study_target, test_result) VALUES
  ('127 (GLAAGALLLY; listed as Homo sapiens) [compound 127]', 'HLA-A*03:01 (Homo sapiens)', '++ (>20% = ++)'),
  ('114 (SLLTVSGAWAK; listed as Homo sapiens) [compound 114]', 'HLA-A*03:01 (Homo sapiens)', '++++ (>75% = ++++)'),
  ('60 (VVFPFPVNKR; listed as Homo sapiens) [compound 60]', 'HLA-A*03:01 (Homo sapiens)', '+++ (>50 = +++)'),
  ('94 (GMTLLCEALK; listed as Homo sapiens) [compound 94]', 'HLA-A*03:01 (Homo sapiens)', '++ (>20% = ++)'),
  ('138 (VSLSKMLKK; listed as Homo sapiens) [compound 138]', 'HLA-A*03:01 (Homo sapiens)', '+++ (>50 = +++)'),
  ('147 (KLFMPRPK; listed as Homo sapiens) [compound 147]', 'HLA-A*03:01 (Homo sapiens)', '+++ (>50 = +++)'),
  ('185 (SIINFKPLTY; listed as Homo sapiens) [compound 185]', 'HLA-A*03:01 (Homo sapiens)', '+++ (>50 = +++)'),
  ('131 (RVDSKQRYY; listed as Homo sapiens) [compound 131]', 'HLA-A*03:01 (Homo sapiens)', '++++ (>75% = ++++)'),
  ('32 (LLDAEPPILY; listed as Homo sapiens) [compound 32]', 'HLA-A*03:01 (Homo sapiens)', '+ (>10% = +)'),
  ('48 (KGWNGQIFK; listed as Homo sapiens) [compound 48]', 'HLA-A*03:01 (Homo sapiens)', '+++ (>50 = +++)'),
  ('180 (RLKMAQESVSK; listed as Homo sapiens) [compound 180]', 'HLA-A*03:01 (Homo sapiens)', '++++ (>75% = ++++)'),
  ('214 (KLFTSVFGVGLK; listed as Homo sapiens) [compound 214]', 'HLA-A*03:01 (Homo sapiens)', '++++ (>75% = ++++)'),
  ('206 (RLYEMILQR; listed as Homo sapiens) [compound 206]', 'HLA-A*03:01 (Homo sapiens)', '++++ (>75% = ++++)'),
  ('120 (TRMQKAGFLYY; listed as Homo sapiens) [compound 120]', 'HLA-A*03:01 (Homo sapiens)', '++ (>20% = ++)'),
  ('13 (AVAFFVLPSK; listed as Homo sapiens) [compound 13]', 'HLA-A*03:01 (Homo sapiens)', '++++ (>75% = ++++)'),
  ('44 (HAFPPGPNY; listed as Homo sapiens) [compound 44]', 'HLA-A*03:01 (Homo sapiens)', '+ (>10% = +)'),
  ('196 (AISSTVLGK; listed as Homo sapiens) [compound 196]', 'HLA-A*03:01 (Homo sapiens)', '++++ (>75% = ++++)'),
  ('144 (PLAMLAATCNK; listed as Homo sapiens) [compound 144]', 'HLA-A*03:01 (Homo sapiens)', '++ (>20% = ++)'),
  ('45 (KCYEVGMMK; listed as Homo sapiens) [compound 45]', 'HLA-A*03:01 (Homo sapiens)', '++++ (>75% = ++++)');

----------
- Study Target: HLA-A*03:01 (Homo sapiens, UniProt P04439)
- Procedure Details: MHC binding assay (UV-ligand exchange, β2m ELISA)
- Measurement Parameters: binding to HLA-A*03:01, UV-ligand exchange, β2m ELISA
- Method: Candidate peptides for T cell based therapies according to the present invention were further tested for their MHC binding capacity (affinity). The individual peptide-MHC complexes were produced by UV-ligand exchange, where a UV-sensitive peptide is cleaved upon UV-irradiation and exchanged with the peptide of interest as analyzed. […] Absorption was measured at 450 nm. […]
Readout Label: Peptide exchange (MHC class I binding score, peptide exchange yield)

INSERT INTO measurements (substance, test_result) VALUES
  ('85 (IMPTFDLTK; listed as Homo sapiens) [compound 85]', '+ (>10% = +)'),
  ('113 (VSIRNTLLY; listed as Homo sapiens) [compound 113]', '+ (>10% = +)'),
  ('136 (ALSRMSQQY; listed as Homo sapiens) [compound 136]', '++++ (>75% = ++++)'),
  ('80 (ALCGTQLFY; listed as Homo sapiens) [compound 80]', '++++ (>75% = ++++)'),
  ('172 (SLLEADPFLK; listed as Homo sapiens) [compound 172]', '+++ (>50 = +++)'),
  ('7 (RLVELAGQSLLK; listed as Homo sapiens) [compound 7]', '++++ (>75% = ++++)'),
  ('23 (RLSPGPRAY; listed as Homo sapiens) [compound 23]', '+++ (>50 = +++)'),
  ('262 (TMWQIPQEFVK; listed as Homo sapiens) [compound 262]', '++++ (>75% = ++++)'),
  ('84 (QLYSPPSPSYR; listed as Homo sapiens) [compound 84]', '++++ (>75% = ++++)'),
  ('16 (KVFAEHKISY; listed as Homo sapiens) [compound 16]', '+++ (>50 = +++)'),
  ('6 (SIFGLAPGK; listed as Homo sapiens) [compound 6]', '++++ (>75% = ++++)'),
  ('89 (VIYVICRHK; listed as Homo sapiens) [compound 89]', '+++ (>50 = +++)'),
  ('205 (RVYPRPPSK; listed as Homo sapiens) [compound 205]', '++++ (>75% = ++++)'),
  ('26 (QLGYQAAVLK; listed as Homo sapiens) [compound 26]', '+++ (>50 = +++)'),
  ('28 (STLECILYK; listed as Homo sapiens) [compound 28]', '++++ (>75% = ++++)'),
  ('259 (RSYVPLAH; listed as Homo sapiens) [compound 259]', '++++ (>75% = ++++)'),
  ('209 (KILDRVLSRY; listed as Homo sapiens) [compound 209]', '++++ (>75% = ++++)'),
  ('220 (ALPRQAFHSK; listed as Homo sapiens) [compound 220]', '++++ (>75% = ++++)'),
  ('163 (MLYYPSVSR; listed as Homo sapiens) [compound 163]', '++++ (>75% = ++++)');

----------
- Study Target: HLA-A*03:01 (Homo sapiens)
- Procedure Details: MHC binding assay (UV-ligand exchange, β2m ELISA)
- Measurement Parameters: binding to HLA-A*03:01, UV-ligand exchange, β2m ELISA
Readout Label: Peptide exchange (MHC class I binding score, peptide exchange yield)

INSERT INTO assay_data (substance, study_target, test_result) VALUES
  ('200 (RVLPPLTRILK; listed as Homo sapiens) [compound 200]', 'HLA-A*03:01 (Homo sapiens)', '++++ (>75% = ++++)'),
  ('201 (KVADFGLARLLK; listed as Homo sapiens) [compound 201]', 'HLA-A*03:01 (Homo sapiens)', '++++ (>75% = ++++)'),
  ('63 (SSFRPLLSK; listed as Homo sapiens) [compound 63]', 'HLA-A*03:01 (Homo sapiens)', '++++ (>75% = ++++)'),
  ('29 (KVLSILSRLK; listed as Homo sapiens) [compound 29]', 'HLA-A*03:01 (Homo sapiens)', '+++ (>50 = +++)'),
  ('54 (GVTITKTLK; listed as Homo sapiens) [compound 54]', 'HLA-A*03:01 (Homo sapiens)', '+++ (>50 = +++)'),
  ('55 (RLSAESKDLLK; listed as Homo sapiens) [compound 55]', 'HLA-A*03:01 (Homo sapiens)', '+++ (>50 = +++)'),
  ('169 (ATNGKVLKKR; listed as Homo sapiens) [compound 169]', 'HLA-A*03:01 (Homo sapiens)', '++++ (>75% = ++++)'),
  ('173 (VSYNRLIK; listed as Homo sapiens) [compound 173]', 'HLA-A*03:01 (Homo sapiens)', '+++ (>50 = +++)'),
  ('25 (KTWAHCMSY; listed as Homo sapiens) [compound 25]', 'HLA-A*03:01 (Homo sapiens)', '++++ (>75% = ++++)'),
  ('153 (LASSPAGHK; listed as Homo sapiens) [compound 153]', 'HLA-A*03:01 (Homo sapiens)', '+++ (>50 = +++)'),
  ('37 (EVILTTKTPK; listed as Homo sapiens) [compound 37]', 'HLA-A*03:01 (Homo sapiens)', '++ (>20% = ++)'),
  ('11 (PLPRPGAVLK; listed as Homo sapiens) [compound 11]', 'HLA-A*03:01 (Homo sapiens)', '++ (>20% = ++)'),
  ('145 (SLFEGIYTIK; listed as Homo sapiens) [compound 145]', 'HLA-A*03:01 (Homo sapiens)', '++++ (>75% = ++++)'),
  ('197 (RIVDYLLEK; listed as Homo sapiens) [compound 197]', 'HLA-A*03:01 (Homo sapiens)', '++++ (>75% = ++++)'),
  ('24 (KLETGVVKK; listed as Homo sapiens) [compound 24]', 'HLA-A*03:01 (Homo sapiens)', '++++ (>75% = ++++)'),
  ('82 (CLANYTVNK; listed as Homo sapiens) [compound 82]', 'HLA-A*03:01 (Homo sapiens)', '++++ (>75% = ++++)'),
  ('271 (RLPLRVVKH; listed as Homo sapiens) [compound 271]', 'HLA-A*03:01 (Homo sapiens)', '++++ (>75% = ++++)'),
  ('132 (ASSFRPLLSK; listed as Homo sapiens) [compound 132]', 'HLA-A*03:01 (Homo sapiens)', '+++ (>50 = +++)'),
  ('174 (KMMKRLMTVEK; listed as Homo sapiens) [compound 174]', 'HLA-A*03:01 (Homo sapiens)', '++++ (>75% = ++++)'),
  ('258 (QVRDTLKIVFK; listed as Homo sapiens) [compound 258]', 'HLA-A*03:01 (Homo sapiens)', '+++ (>50 = +++)'),
  ('122 (LIGPLLICK; listed as Homo sapiens) [compound 122]', 'HLA-A*03:01 (Homo sapiens)', '++++ (>75% = ++++)'),
  ('187 (KTCQVSGLLY; listed as Homo sapiens) [compound 187]', 'HLA-A*03:01 (Homo sapiens)', '++++ (>75% = ++++)'),
  ('189 (KVFEEPEDFLK; listed as Homo sapiens) [compound 189]', 'HLA-A*03:01 (Homo sapiens)', '++ (>20% = ++)'),
  ('101 (HMDEFKRTQK; listed as Homo sapiens) [compound 101]', 'HLA-A*03:01 (Homo sapiens)', '+++ (>50 = +++)'),
  ('202 (RLFPGLYLGY; listed as Homo sapiens) [compound 202]', 'HLA-A*03:01 (Homo sapiens)', '+++ (>50 = +++)'),
  ('67 (VVREILHAQTLK; listed as Homo sapiens) [compound 67]', 'HLA-A*03:01 (Homo sapiens)', '+++ (>50 = +++)'),
  ('151 (KVASFTVIGY; listed as Homo sapiens) [compound 151]', 'HLA-A*03:01 (Homo sapiens)', '+++ (>50 = +++)'),
  ('254 (SVLDKLLFH; listed as Homo sapiens) [compound 254]', 'HLA-A*03:01 (Homo sapiens)', '++++ (>75% = ++++)'),
  ('61 (SLYDSEPRKK; listed as Homo sapiens) [compound 61]', 'HLA-A*03:01 (Homo sapiens)', '++++ (>75% = ++++)'),
  ('208 (KTGWFTLLY; listed as Homo sapiens) [compound 208]', 'HLA-A*03:01 (Homo sapiens)', '++++ (>75% = ++++)'),
  ('99 (RTYTCQVTY; listed as Homo sapiens) [compound 99]', 'HLA-A*03:01 (Homo sapiens)', '++++ (>75% = ++++)'),
  ('193 (IVYPSATDKTK; listed as Homo sapiens) [compound 193]', 'HLA-A*03:01 (Homo sapiens)', '+++ (>50 = +++)'),
  ('212 (RTIDRSVFK; listed as Homo sapiens) [compound 212]', 'HLA-A*03:01 (Homo sapiens)', '++++ (>75% = ++++)'),
  ('14 (VAFFVLPSK; listed as Homo sapiens) [compound 14]', 'HLA-A*03:01 (Homo sapiens)', '++ (>20% = ++)'),
  ('27 (SGSTLECILYK; listed as Homo sapiens) [compound 27]', 'HLA-A*03:01 (Homo sapiens)', '++++ (>75% = ++++)'),
  ('272 (AVCGGVLVH; listed as Homo sapiens) [compound 272]', 'HLA-A*03:01 (Homo sapiens)', '++++ (>75% = ++++)'),
  ('77 (VVDDSQLPK; listed as Homo sapiens) [compound 77]', 'HLA-A*03:01 (Homo sapiens)', '++ (>20% = ++)'),
  ('72 (KLYPQCLQK; listed as Homo sapiens) [compound 72]', 'HLA-A*03:01 (Homo sapiens)', '++++ (>75% = ++++)');
